B1: tRNA (parent)
chain: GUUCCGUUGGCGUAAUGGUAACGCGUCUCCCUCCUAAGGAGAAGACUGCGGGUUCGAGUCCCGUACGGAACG

# Variants of: B1
# assay-remarks: yeast fitness, log relative to wild type (ln ratio); higher = fitter; tRNA-Arg(CCU), competitive growth, 37 C, 1 M NaCl
value-kind: yeast fitness (ln)

INSERT INTO results (alteration, experimental_value) VALUES
  ('G1A G6A C27U A43C C46U A70U', -0.201),
  ('G1A U2G G6A C27U C46U C66U A69G A70G C71U', -0.407),
  ('U2C G6U A43C C66U A69G C71U', -0.454),
  ('U2G G6A C46U C66U A70G', -0.0322),
  ('U2G G6U A43C C66U A69G A70U C71U', -0.468),
  ('G1A C46U C66U A69G A70G', -0.134),
  ('U2C G6U A43C C66A A70G C71U', -0.0145),
  ('G1A U2C G6U C46U A69G C71U', -0.0722),
  ('U2G C27U A43C C46U A69G A70U', -0.0275),
  ('U2C C46U C66A C71U', -0.0793),
  ('A43C C66A', -0.0164);
